Target: human sortilin (sSORT) (Homo sapiens)
Sequence (Q99523 78-756 limits assumed): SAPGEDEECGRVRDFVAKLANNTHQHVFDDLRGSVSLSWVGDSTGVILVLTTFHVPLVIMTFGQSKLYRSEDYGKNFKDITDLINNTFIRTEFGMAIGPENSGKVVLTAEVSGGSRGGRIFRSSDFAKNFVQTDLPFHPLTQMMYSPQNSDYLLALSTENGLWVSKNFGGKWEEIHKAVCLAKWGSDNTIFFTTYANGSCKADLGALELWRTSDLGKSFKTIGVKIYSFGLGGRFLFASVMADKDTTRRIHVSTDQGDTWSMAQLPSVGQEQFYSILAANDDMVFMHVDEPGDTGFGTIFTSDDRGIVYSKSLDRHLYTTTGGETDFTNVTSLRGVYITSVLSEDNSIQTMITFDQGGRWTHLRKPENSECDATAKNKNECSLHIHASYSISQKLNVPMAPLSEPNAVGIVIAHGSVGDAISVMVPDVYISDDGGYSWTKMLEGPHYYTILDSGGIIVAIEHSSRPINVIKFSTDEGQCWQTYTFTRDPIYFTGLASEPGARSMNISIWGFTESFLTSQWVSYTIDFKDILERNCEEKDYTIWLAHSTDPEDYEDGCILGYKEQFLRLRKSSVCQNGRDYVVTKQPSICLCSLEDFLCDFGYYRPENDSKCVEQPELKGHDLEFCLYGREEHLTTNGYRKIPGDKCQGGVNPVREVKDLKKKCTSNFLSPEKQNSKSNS
Assay: Neurotensin competitive fluorescence polarization binding assay (FPA)
Details: mean IC50 values for sortilin inhibitors, IC50 (nM), 100 nM sSORT, 10 nM Neurotensin-Ahx-FITC, 1 h room temperature
metricName: IC50 (nM)

Worked set:
compound: CC(C)(C)/C=C/C(NC(=O)c1ccc(Oc2cccnc2)cc1)C(=O)O (stereo not drawn)
IC50 (nM): 56
//
compound: CC(C)Cc1cc(C(=O)NC(/C=C/C(C)(C)C)C(=O)O)n(C)n1 (stereo not drawn)
IC50 (nM): 102
//
compound: CC(C)(C)/C=C/C(NC(=O)C1CN(c2ccncc2)CCN1)C(=O)O (single isomer, unassigned) [SI4 diastereomer 1]
IC50 (nM): 229

P: Cn1nc(C(=O)NC(/C=C/C(C)(C)C)C(=O)O)cc1-c1ccc(Cl)c(Cl)c1 (stereo not drawn)
Q: CC(C)(C)/C=C/C(NC(=O)c1cccc(-n2cnnc2)c1)C(=O)O (stereo not drawn)
Ask | Thinking about recorded IC50 values, which is higher, P or Q ? API: response body contains the label of the selected item.
Reply | P
